- measured_target: ER in MCF-7 cells (Homo sapiens (Human))
- Sequence (P03372 whole entry): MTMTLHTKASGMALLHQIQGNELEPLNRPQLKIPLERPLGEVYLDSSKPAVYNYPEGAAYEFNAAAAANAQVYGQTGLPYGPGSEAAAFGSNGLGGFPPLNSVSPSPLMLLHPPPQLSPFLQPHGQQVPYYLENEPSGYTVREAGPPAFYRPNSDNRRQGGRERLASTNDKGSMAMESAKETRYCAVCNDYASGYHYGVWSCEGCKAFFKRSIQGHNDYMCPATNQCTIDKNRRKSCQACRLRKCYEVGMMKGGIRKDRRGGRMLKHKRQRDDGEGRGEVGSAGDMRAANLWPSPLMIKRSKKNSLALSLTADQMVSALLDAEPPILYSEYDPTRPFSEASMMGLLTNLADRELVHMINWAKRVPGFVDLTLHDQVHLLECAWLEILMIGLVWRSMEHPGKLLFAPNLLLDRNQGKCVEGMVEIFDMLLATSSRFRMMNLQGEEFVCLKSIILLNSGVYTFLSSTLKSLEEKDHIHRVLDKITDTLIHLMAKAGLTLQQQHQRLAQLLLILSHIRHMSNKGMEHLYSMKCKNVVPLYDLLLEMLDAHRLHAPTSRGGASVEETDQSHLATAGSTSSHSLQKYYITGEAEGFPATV
- protocol: In-cell Western (ICW) ER degradation assay in MCF-7 cells
- Type: cell-based
- measurement_conditions: MCF7, read-out: MCF7 Dmax, MCF-7, maximal ER degradation, 16 hrs treatment
- Description: In-cell Western (ICW) assays in MCF-7 and T47D cell lines. Day 3: After 16 hrs of compounds treatment, cells were fixed by 4% PFA and permeabilized with elution buffer (0.1% Triton X-100 in 1% PBS Solution). Subsequently, cells were blocked with Intercept (PBS) Blocking Buffer (Li-COR, Odyssey Blocking Buffer), and were stained with ER (1:500, Cell signaling) primary antibody for overnight at cold room. […]
metric_name: Dmax

molecule | measured_target | metric_name | test_result
O=C1CC[C@@H](Nc2ccc([C@@]34CCN(CC5CC6(CCN(c7ccc([C@@H]8c9ccc(O)cc9CC[C@@H]8c8ccccc8)cc7)CC6)C5)C[C@@H]3C4(F)F)cc2)C(=O)N1 [Compound A67] | ER in MCF-7 cells (Homo sapiens (Human)) | Dmax | 50 to 75%
COc1cc2c(c3c1C(=O)N([C@H]1CCC(=O)NC1=O)C3)OCC21CCN(C[C@H]2CCC3(CCN(c4ccc([C@@H]5c6ccc(O)cc6CC[C@@H]5c5ccccc5)cc4)CC3)OC2)CC1 [Compound A235] | ER in MCF-7 cells (Homo sapiens (Human)) | Dmax | > 75%
COc1cc(N2CCC(CN3CC[C@]4(c5ccc(N[C@H]6CCC(=O)NC6=O)cc5)[C@H](C3)C4(F)F)CC2)ccc1[C@@H]1c2ccc(O)cc2CC[C@@H]1c1ccccc1 [Compound A90] | ER in MCF-7 cells (Homo sapiens (Human)) | Dmax | 25 to 50%
COc1cc(N2CCC3(CC2)CC(CN2CCC4(CC2)COc2c4ccc4c2CN([C@H]2CCC(=O)NC2=O)C4=O)CO3)ccc1[C@@H]1c2ccc(O)cc2CC[C@@H]1c1ccccc1 (stereo partly shown) [Compound A55] | ER in MCF-7 cells (Homo sapiens (Human)) | Dmax | 25 to 50%
O=C1CC[C@H](N2Cc3c(ccc4c3OCC43CCN(CC4CCC5(CC4)CN(c4ncc([C@H]6c7ccc(O)cc7CC[C@H]6c6ccccc6)cn4)C5)CC3)C2=O)C(=O)N1 [Compound A153] | ER in MCF-7 cells (Homo sapiens (Human)) | Dmax | < 25%
COc1cc2c(c3c1C(=O)N([C@H]1CCC(=O)NC1=O)C3)OCC21CCN(C[C@@H]2CCC3(CCN(c4ccc([C@@H]5c6ccc(O)cc6CC[C@@H]5c5ccccc5)cc4)CC3)OC2)CC1 [Compound A236] | ER in MCF-7 cells (Homo sapiens (Human)) | Dmax | > 75%
COc1cc(N2CC(CCN3CCC4(CC3)COc3cc5c(cc34)CN([C@H]3CCC(=O)NC3=O)C5=O)C2)c(F)cc1[C@@H]1c2ccc(O)cc2CC[C@@H]1c1ccccc1 [Compound A205] | ER in MCF-7 cells (Homo sapiens (Human)) | Dmax | 25 to 50%
COc1cc(N2CCC3(CC2)CC(CN2CCC4(CC2)COc2c4cc(C)c4c2CN([C@H]2CCC(=O)NC2=O)C4=O)C3)c(F)cc1[C@@H]1c2ccc(O)cc2CC[C@@H]1c1ccccc1 [Compound A203] | ER in MCF-7 cells (Homo sapiens (Human)) | Dmax | > 75%
COc1cc(N2CCC3(CC[C@H](CN4CCC5(CC4)COc4c5cc(C)c5c4CN([C@H]4CCC(=O)NC4=O)C5=O)CO3)CC2)c(F)cc1[C@@H]1c2ccc(O)cc2CC[C@@H]1c1ccccc1 [Compound A230] | ER in MCF-7 cells (Homo sapiens (Human)) | Dmax | > 75%
COc1cc(N2CCC3(CC2)C[C@H](CN2CCC4(CC2)COc2cc5c(cc24)CN([C@H]2CCC(=O)NC2=O)C5=O)CO3)c(F)cc1[C@@H]1c2ccc(O)cc2CC[C@@H]1c1ccccc1 [Compound A175] | ER in MCF-7 cells (Homo sapiens (Human)) | Dmax | > 75%
